The measurements presented in this section are drawn from ChEMBL document CHEMBL1146002.

- EXPERIMENTAL_SYSTEM: Histone deacetylase 1 (Homo sapiens, UniProt Q13547)
- Sequence (Q13547 whole entry): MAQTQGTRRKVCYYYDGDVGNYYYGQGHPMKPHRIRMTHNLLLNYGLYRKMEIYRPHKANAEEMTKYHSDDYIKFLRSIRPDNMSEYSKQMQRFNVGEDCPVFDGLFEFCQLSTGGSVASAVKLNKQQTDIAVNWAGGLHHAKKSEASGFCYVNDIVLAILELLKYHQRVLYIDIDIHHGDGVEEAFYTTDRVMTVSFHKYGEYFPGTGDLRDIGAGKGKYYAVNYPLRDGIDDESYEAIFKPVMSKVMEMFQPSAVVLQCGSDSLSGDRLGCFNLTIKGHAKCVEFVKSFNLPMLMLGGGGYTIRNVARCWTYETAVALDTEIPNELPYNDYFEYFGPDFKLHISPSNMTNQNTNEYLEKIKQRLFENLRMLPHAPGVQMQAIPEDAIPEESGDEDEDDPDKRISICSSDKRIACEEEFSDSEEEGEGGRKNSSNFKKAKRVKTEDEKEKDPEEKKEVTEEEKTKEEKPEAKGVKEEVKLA
- ASSAY_OVERVIEW: Inhibition of human recombinant HDAC1
Simple rule here: IC50 less than 4 µM is 1.0, otherwise 0.0.

In: In plain terms, does COc1cc(CNc2ccc(C(=O)Nc3ccccc3N)cn2)cc(OC)c1OC come in under 4 µM for IC50?
Out: 0.0

In: Item COc1cc(NCc2ccc(/C=C/C(=O)Nc3ccccc3N)cn2)cc(OC)c1OC : IC50 beneath 4 µM, strictly?
Out: 1.0

In: Strictly below 4 µM in IC50? Nc1ccccc1NC(=O)/C=C/c1ccc(CNc2ccccc2)cc1
Out: 0.0

In: IC50 strictly < 4 µM for this compound? COc1cc(N(C)Cc2ccc(/C=C/C(=O)Nc3ccccc3N)cc2)cc(OC)c1OC
Out: 1.0

In: Please indicate whether the reported IC50 of COc1ccc(NCc2ccc(/C=C/C(=O)Nc3ccccc3N)cc2)cc1OC is strictly below 4 µM.
Out: 1.0

====

Listed below: IC50 values for each entry.
- System: HCT-116
- ASSAY_OVERVIEW: Antiproliferative activity against human HCT116 cells by MTT assay
- Assay type: functional, cell-based
Report only the number, with the unit µM understood.

In: Supply IC50 value. Item: COc1cc(CNc2ccc(C(=O)Nc3ccccc3N)cn2)cc(OC)c1OC
Out: 3

====

- EXPERIMENTAL_SYSTEM: Histone deacetylase 1 (Homo sapiens, UniProt Q13547)
- ASSAY_OVERVIEW: Inhibition of human recombinant HDAC1
// values below are reported log10 IC50
Scale: decimal log of IC50, IC50 in µM.

Some compounds with recorded log10 IC50:
INPUT_SMILES | EXPERIMENTAL_VALUE
COc1ccc(CNc2ccc(/C=C/C(=O)Nc3ccccc3N)cc2)cc1 | 0.60
Nc1ccccc1NC(=O)/C=C/c1ccc(NCc2ccccc2)nc1 | 0.48
COc1ccccc1NCc1ccc(/C=C/C(=O)Nc2ccccc2N)cc1 | 1.34
COc1ccc(CNc2ccc(C(=O)Nc3ccccc3N)cc2)cc1 | 0.30
COc1cc(NCc2ccc(/C=C/C(=O)Nc3ccccc3N)cc2)cc(OC)c1OC | 0.30

In: Complete the entry with log10 IC50 for Nc1ccccc1NC(=O)/C=C/c1ccc(NCc2ccc(OC(F)(F)F)cc2)cc1
Out: 0.70

In: Give the reported log10 IC50 for this compound. COc1ccc(NCc2ccc(C(=O)Nc3ccccc3N)cc2)cc1
Out: -0.22

In: Give reported log10 IC50 value for Nc1ccccc1NC(=O)/C=C/c1ccc(NCc2ccc(F)cc2)nc1
Out: 0.70

In: Supply recorded log10 IC50 for COc1cc(CNc2ccc(C(=O)Nc3ccccc3N)cc2)cc(OC)c1OC here.
Out: 0.48

In: Supply log10 IC50 value. Item: COc1ccc(CNc2ccc(/C=C/C(=O)Nc3ccccc3N)cn2)cc1
Out: 0.30

In: Item Nc1ccccc1NC(=O)/C=C/c1ccc(NCc2ccncc2)nc1 : provide log10 IC50
Out: 0.60

In: // fetch log10 IC50 given entry Nc1ccccc1NC(=O)/C=C/c1ccc(NCCCc2ccccc2)nc1
Out: 0.48

In: State its log10 IC50: Nc1ccccc1NC(=O)/C=C/c1ccc(NCc2ccc(OC(F)(F)F)cc2)nc1
Out: 0.30

In: Fill in reported log10 IC50 for this entry: COc1ccc(NCc2ccc(/C=C/C(=O)Nc3ccccc3N)cc2)cc1
Out: 0.60

In: Report log10 IC50 for Nc1ccccc1NC(=O)/C=C/c1ccc(NCc2ccncc2)cc1
Out: 1.00

In: Specify measured log10 IC50 for Nc1ccccc1NC(=O)/C=C/c1ccc(NCc2ccc([N+](=O)[O-])cc2)cc1 .
Out: 0.60

In: # return recorded log10 IC50 for input COc1ccc(CCNc2ccc(C(=O)Nc3ccccc3N)cn2)cc1
Out: 0.48

In: Given the compound COc1cc(NCc2ccc(C(=O)Nc3ccccc3N)cc2)cc(OC)c1OC , write its reported log10 IC50.
Out: 0.48

In: For the compound COc1ccc(CNc2ccc(C(=O)Nc3ccccc3N)cc2)cc1OC , report log10 IC50.
Out: 0.60

In: Provide one value: measured log10 IC50 of COc1ccc(CNc2ccc(C(=O)Nc3ccccc3N)cn2)cc1
Out: 0.60

In: Fill in reported log10 IC50 for this entry: COc1cccc(NCc2ccc(/C=C/C(=O)Nc3ccccc3N)cc2)c1
Out: 1.23

In: Determine its reported log10 IC50: Nc1ccccc1NC(=O)/C=C/c1ccc(NCCNc2ccccc2)nc1
Out: 0.30
